- tgt: human ALX receptor (Homo sapiens)
- Sequence (P25090 whole entry): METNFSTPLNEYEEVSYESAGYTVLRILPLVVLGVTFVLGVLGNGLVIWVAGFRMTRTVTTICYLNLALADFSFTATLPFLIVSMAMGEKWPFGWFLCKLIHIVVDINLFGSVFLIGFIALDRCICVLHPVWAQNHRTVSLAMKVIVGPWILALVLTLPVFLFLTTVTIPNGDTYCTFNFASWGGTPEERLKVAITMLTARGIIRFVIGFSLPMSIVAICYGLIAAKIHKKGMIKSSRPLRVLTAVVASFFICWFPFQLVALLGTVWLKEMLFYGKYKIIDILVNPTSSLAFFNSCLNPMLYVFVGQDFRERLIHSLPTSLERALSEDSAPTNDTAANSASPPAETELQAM
- assay.comment: Intracellular calcium measurements (FLIPR), agonistic activity in HEK293-hALXR-Gα16 cells
- run.conditions: Fluo-4 calcium FLIPR, normalized to WKYMVm 10 nM
readout.label: pEC50
Kindly note that pEC50 refers to -log10 of the concentration in mol/L and answer with the value alone.

Example entries begin here.
> print(dat)
                                   compound                                tgt  reported.result
1  CN(C)C(=O)CCC(=O)NC[C@H]1[C@H](C(=O)Nc2ccc(Br)cc2)[C@@H]2C=C[C@H]1C21CC1 (racemic) [Example 164]  human ALX receptor (Homo sapiens)             7.10
2  CC(=O)c1csc(CNC(=O)[C@H]2[C@H](C(=O)NCCCN)[C@H]3C=C[C@@H]2C32CC2)n1 (racemic) [Example 299]  human ALX receptor (Homo sapiens)             6.56

Attention now turns to another entry.
Problem: Which pEC50 reading was recorded for the compound O=C(CCCN1CCCC1=O)NC[C@H]1[C@H](C(=O)Nc2ccc(Br)cc2)[C@@H]2C=C[C@H]1C21CC1 (racemic) [Example 161] ?
Result: 7.33
